- particulars: in acetone, 288.15 K
measured_attribute: solubility (mole fraction)
Lab note: record the figure alone, no unit after it.

Query block: Given the entry O=C(Nc1ccc(F)cc1F)c1cccnc1Oc1cccc(C(F)(F)F)c1 , report its measured solubility (mole fraction).
Result block: 0.0127

---

- particulars: in ethanol, 293.15 K
measured_attribute: solubility (mole fraction)

Query block: Given the entry O=C(Nc1ccc(F)cc1F)c1cccnc1Oc1cccc(C(F)(F)F)c1 , report its measured solubility (mole fraction).
Result block: 0.000545

---

- particulars: in isopropanol, 278.15 K
measured_attribute: solubility (mole fraction)
Lab note: record the figure alone, no unit after it.

Query block: Given the entry O=C(Nc1ccc(F)cc1F)c1cccnc1Oc1cccc(C(F)(F)F)c1 , report its measured solubility (mole fraction).
Result block: 4.65e-05

---

- particulars: in cyclohexane, 283.15 K
measured_attribute: solubility (mole fraction)

Query block: Given the entry O=C(Nc1ccc(F)cc1F)c1cccnc1Oc1cccc(C(F)(F)F)c1 , report its measured solubility (mole fraction).
Result block: 0.000103

---

- particulars: in methanol, 298.15 K
measured_attribute: solubility (mole fraction)
Lab note: record the figure alone, no unit after it.

Query block: Given the entry O=C(Nc1ccc(F)cc1F)c1cccnc1Oc1cccc(C(F)(F)F)c1 , report its measured solubility (mole fraction).
Result block: 0.0006

---

- particulars: in methanol, 308.15 K
measured_attribute: solubility (mole fraction)

Query block: Given the entry O=C(Nc1ccc(F)cc1F)c1cccnc1Oc1cccc(C(F)(F)F)c1 , report its measured solubility (mole fraction).
Result block: 0.000938

---

- particulars: in cyclohexane, 288.15 K
measured_attribute: solubility (mole fraction)
Lab note: record the figure alone, no unit after it.

Query block: Given the entry O=C(Nc1ccc(F)cc1F)c1cccnc1Oc1cccc(C(F)(F)F)c1 , report its measured solubility (mole fraction).
Result block: 0.000162

---

- particulars: in isopropanol, 303.15 K
measured_attribute: solubility (mole fraction)

Query block: Given the entry O=C(Nc1ccc(F)cc1F)c1cccnc1Oc1cccc(C(F)(F)F)c1 , report its measured solubility (mole fraction).
Result block: 0.000431

---

- particulars: in ethanol, 308.15 K
measured_attribute: solubility (mole fraction)
Lab note: record the figure alone, no unit after it.

Query block: Given the entry O=C(Nc1ccc(F)cc1F)c1cccnc1Oc1cccc(C(F)(F)F)c1 , report its measured solubility (mole fraction).
Result block: 0.00107

---

- particulars: in toluene, 308.15 K
measured_attribute: solubility (mole fraction)
Lab note: record the figure alone, no unit after it.

Query block: Given the entry O=C(Nc1ccc(F)cc1F)c1cccnc1Oc1cccc(C(F)(F)F)c1 , report its measured solubility (mole fraction).
Result block: 0.0177

---

- particulars: in methanol, 293.15 K
measured_attribute: solubility (mole fraction)

Query block: Given the entry O=C(Nc1ccc(F)cc1F)c1cccnc1Oc1cccc(C(F)(F)F)c1 , report its measured solubility (mole fraction).
Result block: 0.000474

---

- particulars: in cyclohexane, 308.15 K
measured_attribute: solubility (mole fraction)
Lab note: record the figure alone, no unit after it.

Query block: Given the entry O=C(Nc1ccc(F)cc1F)c1cccnc1Oc1cccc(C(F)(F)F)c1 , report its measured solubility (mole fraction).
Result block: 0.000613

---

- particulars: in methanol, 323.15 K
measured_attribute: solubility (mole fraction)
Lab note: record the figure alone, no unit after it.

Query block: Given the entry O=C(Nc1ccc(F)cc1F)c1cccnc1Oc1cccc(C(F)(F)F)c1 , report its measured solubility (mole fraction).
Result block: 0.00187
